# System: SW-620
# assay_method_text: NCI tumour cell line growth inhibition, 48 h
Calls of active or inactive are those of the source. Cut-off read from the data, not from the text of the source: active = GI50 up to about 1.1 µM and inactive = higher. Square brackets hold non-standard residues; d marks the D form. Peptide text beside a SMILES is read from it. * marks the point of attachment. ξ: configuration not given here. NMeY = CN[C@@H](Cc1ccc(O)cc1)C(=O)O; Cbz = O=C(OCc1ccccc1)*; ξA = CC(N)C(=O)O
quantity_measured: GI50

Field: example entries. Status: answers known.
{"compound": "Fc1ccc(N2C(=S)SC(=N\\c3ccccc3)/C2=N/c2ccccc2)cc1", "GI50": "> 100 µM (inactive)"}
{"compound": "Cc1ccc(/C=C2\\Sc3scc(-c4ccccc4)[n+]3C2=O)cc1", "GI50": "20.6 µM (inactive)"}
{"compound": "O=C(OCCOCCOC(=O)c1c[nH]cc1-c1ccccc1)c1c[nH]cc1-c1ccccc1", "GI50": "28.4 µM (inactive)"}
{"compound": "O=C1Sc2sc(=S)sc2SC1c1ccccc1 (centres undefined)", "GI50": "21.1 µM (inactive)"}

Report GI50 for each item below.
1. COc1ccc(C/C=C(\C)CCO)cc1
2. C/C(=C\c1ccccc1)C(O)S(=O)(=O)O (centres undefined)
3. CC1(C(=O)NCCN(CCNC(=O)C2(C)CC3(C)CC(C)(C2)C(=O)NC3=O)CCNC(=O)C2(C)CC3(C)CC(C)(C2)C(=O)NC3=O)CC2(C)CC(C)(C1)C(=O)NC2=O (centres undefined)

["> 100 µM (inactive)", "> 100 µM (inactive)", "> 100 µM (inactive)"]

Report GI50 for each item below.
1. Nc1nc(N)c2nc(CNc3ccc(C(=O)NC(CCNC(=O)c4ccccc4C(=O)O)C(=O)O)cc3)cnc2n1 (centres undefined)
2. COc1ccc(C[C@@H](C(=O)N[C@@H](C)C(N)=O)N(C)C(=O)[C@@H]2CCCN2C(=O)[C@H](CC(C)C)NC(=O)C(C)NC(=O)OCc2ccccc2)cc1 (some centres undefined) (Cbz-[ξA]LP[NMeY](Me)A-NH2)

1: 0.01 µM (active); 2: > 100 µM (inactive)
